Data origin: paper PMC9482650

# measured target: SNX27, Q96L92
# test name: holdup assay
# Design: key: below the threshold = too weak to quantify, mostly under pKd 3.1 to 4
# condition label: plain residues with an end cap or a label only (N-terminal biotin on a linker: ttds)
observed property: pKd
API note: the answer field is a bare number with no unit suffix.

These solved cases illustrate the format of a correct answer.
GRLLGLETNV [ARHGEF26, Q96DR7]: 4.49
GARVSKETPL [MAPK12, P53778]: 5
PSRDRKETSI [RALBP1, Q15311]: 4.23
KQVVPFSSSV [GDA, Q9Y2T3]: 3.53
SSIDLWETAL [SLC15A5, A6NIM6]: 5.92

For the next question, use this binder.
Query: So what does the record say about pKd for SRSRRRETAL [HPV33-E6, P06427] ?
Reply: 4.91
